system: NCI-H226 lung; assay: NCI tumour cell line growth inhibition, 48 h
MEASUREMENT KIND: TGI

1) CN=C1CN=C(OP(=O)(N2CCOCC2)N2CCOCC2)c2cc(Cl)ccc2N1 | > 100 µM
2) CCn1c(SCC(=O)Nc2cc(C(F)(F)F)ccc2Cl)nc2ccccc2c1=O | > 100 µM
3) O=S(=O)(O)c1cc(S(=O)(=O)O)c2c(N=Nc3ccc(S(=O)(=O)O)c4ccccc34)c(O)ccc2c1 | > 100 µM
4) COc1ccc([Se][Se]c2ccc(OC)cc2OC)c(OC)c1 | 7.71 µM
5) COC(=O)/C(=N\NC(N)=O)C(C#N)c1ccccc1 (stereo not given) | > 100 µM

###

Attribute: TGI
system: 786-0 renal; assay: NCI tumour cell line growth inhibition, 48 h
MEASUREMENT KIND: TGI

1. CCOC(=O)/C(=C\c1cn(C(C)=O)c2ccccc12)P(C)(=O)OCC (stereo not given) | > 100 µM
2. O=C(Nc1ccccc1)c1cc(S(=O)(=O)N2CCNC2=O)c(S)cc1Cl | > 100 µM
3. COc1ccc(/C=C2/SC(=Nc3ccccc3)N(NC(=O)Cc3ccccc3)C2=O)c(OC)c1 | > 100 µM
4. O=C1/C(=C/c2ccc(F)cc2)CN(C(=O)C(Cl)Cl)C/C1=C\c1ccc(F)cc1 | 0.499 µM
5. CSc1nc(NC2OCC(OC(C)=O)C(OC(C)=O)C2OC(C)=O)c2c(n1)OCC2=O (stereo not given) | > 100 µM

###

tested on: T-47D breast; experiment: NCI tumour cell line growth inhibition, 48 h
Attribute: TGI
MEASUREMENT KIND: TGI

1) CCc1[nH]nc(C(N)=O)c1N=NN(C)C | > 100 µM
2) C#Cc1cccc(NC(=O)c2cccc(NC(=O)CCl)c2)c1 | > 82.5 µM
3) CCOc1ccccc1Nc1ccc(N)cc1S(=O)(=O)O | > 100 µM
4) CN(CCNC(=O)c1nn(-c2ccc(Cl)cc2Cl)c2c1Cc1ccccc1-2)CCNC(=O)c1nn(-c2ccc(Cl)cc2Cl)c2c1Cc1ccccc1-2 | > 30.2 µM
5) CC[C@]1(Cc2ccc(OC)c(OC)c2)C2CC(C(=O)OC)ON2O[C@H](OCc2ccccc2)[C@@H]1OC(C)=O (some centres undefined) | > 100 µM
6) O=[N+]([O-])c1ccc(N=Nc2c(Cl)cc(O)cc2Cl)cc1 | 5.46 µM
7) Cc1nc(C)c(N2CCN(S(N)(=O)=O)CC2)c(=O)[nH]1 | > 100 µM
8) COc1ccc2nc3cc([N+](=O)[O-])ccc3c(Nc3ccc(S(=O)(=O)Nc4ncccn4)cc3)c2c1 | > 100 µM
9) Cc1ccc2[nH]c(O)c(N=Nc3ccccc3[N+](=O)[O-])c2c1 | 14 µM
10) Cc1ccc(N=C2OP(=O)(Nc3ccc(C)cc3)Oc3ccccc32)cc1 (centres undefined) | > 100 µM
11) CCN(CC)CCCNc1n[n+]([O-])c2ccccc2[n+]1[O-] | 68.1 µM
12) CCc1cccc(NC(=O)Nc2ccc(Oc3ccc4nc(NC(=O)OC)[nH]c4c3)cc2)c1 | > 15.6 µM
13) O=c1oc2ccc(Cl)cc2c(=O)n1-c1ccc(F)cc1F | 5.27 µM
14) O=S(=O)(O)c1cc(S(=O)(=O)O)c2c(N=Nc3ccc(S(=O)(=O)O)c4ccccc34)c(O)ccc2c1 | > 100 µM

###

Attribute: TGI
test system: ACHN renal; test: NCI tumour cell line growth inhibition, 48 h
MEASUREMENT KIND: TGI

1. CCOC(=O)[C@@H](NC(=O)OC(C)(C)C)[C@@H](O)C(=O)OCC | > 100 µM
2. Cc1cc2c(=O)c(C)n[nH]c2c(C#N)c1C | > 100 µM
3. CCc1ccc(Cc2ccc(CC)c(NC(=O)C(=O)C3NC(=S)NC3=O)c2CC)c(CC)c1NC(=O)C(=O)C1NC(=S)NC1=O (stereo unspecified) | > 100 µM
4. c1cc(C2=NCCO2)c2ccsc2c1 | > 100 µM
5. COc1ccc([Se][Se]c2ccc(OC)cc2OC)c(OC)c1 | 8.89 µM
6. Oc1ccc(C2Oc3cc(O)cc4c3C2c2cc(O)cc3c2C(c2cc(O)cc5c2C4C(c2ccc(O)cc2)O5)C(c2ccc(O)cc2)O3)cc1 (stereo unspecified) | > 25 µM
7. CCO[C@H]1O[C@@H]2OC3(C)CCC4[C@H](C)CCC([C@H]1C)[C@]42OO3 (stereo partly specified) | > 100 µM
8. CC(C)(CCl)NC(=O)c1cccc(C(=O)NC(C)(C)CCl)n1 | > 100 µM
9. COc1cc(/C=C2\NC(=O)C3Cc4c(OC)c(C)c(OC)c(OC)c4C2N3C)c(OC)c(C)c1OC (stereo unspecified) | > 100 µM
10. Cn1ccc(=NS(=O)(=O)c2ccccc2)cc1 | > 100 µM
11. COc1ccc(C(=O)CCN(C)C)c2ccccc12 | 34 µM
12. CC(=O)OC12CC[N+]3(C)CCCCC3C1=Nc1ccccc12 (stereo unspecified) | > 100 µM
13. CN/N=C(\C(=O)Nc1ccc(C(F)(F)F)cc1[N+](=O)[O-])C(c1cnc2ccc([N+](=O)[O-])cc2n1)[N+](=O)[O-] (stereo unspecified) | > 100 µM
14. O=C1c2cn[nH]c2N=C(Nc2ccccc2)C1N=Cc1ccc([N+](=O)[O-])cc1 (stereo unspecified) | > 10 µM
15. COn1oc(=O)c2ccccc21 | > 100 µM
16. O=c1c(C(c2ccc([N+](=O)[O-])cc2)c2c(O)c3ccccc3n(-c3ccccc3)c2=O)c(O)c2ccccc2n1-c1ccccc1 | 72 µM
17. CCN1C(=O)N(CC)C2C1NN=c1s/c(=C\c3ccc(C(F)(F)F)cc3)c(=O)n12 (stereo unspecified) | 30.5 µM
18. Cc1oc2nc(N(C)C)nc(NN)c2c1C | > 100 µM
19. Cc1nc(-n2nc(-c3ccccc3)cc2-c2ccccc2)sc1C(=O)/C=C/c1ccc([N+](=O)[O-])cc1 | > 52 µM
20. O=C(O)/C=C/c1ccc(OS(=O)(=O)O)cc1 | > 100 µM
21. O=C(C=Nc1ccccc1S)c1ccco1 | > 100 µM

###

tested on: KM12 colon; test: NCI tumour cell line growth inhibition, 48 h
Attribute: TGI
MEASUREMENT KIND: TGI

1) CCC[CH2][Sn]1([CH2]CCC)[O]CC[S]1 | 3.02 µM
2) COC(=O)c1sc2c(=O)c(C(=O)OC)c(C(=O)OC)sc2c(=O)c1C(=O)OC | > 100 µM
3) C=CCOc1ccc(N)c([N+](=O)[O-])c1 | > 100 µM
4) S=C1SCN(Cc2ccccc2)CN1Cc1ccccc1 | 6.84 µM
5) N#CC1(C#N)[C@@H]2CCC=C(Sc3ccccc3)[C@@H]21 | 28.5 µM
6) COc1cc2c3c(n(CCCn4cncn4)c(=O)c2cc1OC)-c1cc2c(cc1C3=O)OCO2 | > 100 µM
7) COc1ccc2c(=O)c3c([nH]c2c1)OCC3=O | > 100 µM
8) COCN1C(=N)C(C(=O)OC(C)(C)C)=C2C=C(O)C=CC21C (stereo unspecified) | 30.5 µM
9) CC(ON1[C@](C)(c2ccccc2)CC[C@@]1(C)c1ccccc1)c1ccccc1 (stereo partly specified) | > 100 µM
10) O=C(O)CN1C(=O)CN=C(c2ccccn2)c2cc(Cl)ccc21 | > 100 µM
11) CCOC(=O)CNC(=O)OCc1ccccc1 | > 100 µM

###

Attribute: TGI
system: HT29 colon; test: NCI tumour cell line growth inhibition, 48 h
MEASUREMENT KIND: TGI

1) COc1ccccc1NC(=O)C1=C(C)NC(C)=C(C(=O)Nc2ccccc2OC)C1c1ccccc1Cl | > 100 µM
2) C1C[OH+]CCNCC[OH+]CC[OH+]CCN1.N.[Cl-].[Pt+4] | > 100 µM
3) CC(C)(C)OC(=O)NCCC1CNc2ccccc21 (stereo unspecified) | > 100 µM
4) CCc1cccc(C(C)CC)c1NC(=O)C(=O)Cc1nc2ccccc2o1 (stereo unspecified) | > 50 µM
5) Cn1c2ccccc2c2c3c(c4c5ccccc5n(C5OC(CO)C(O)C(O)C5O)c4c21)C(=O)OC3=O (stereo unspecified) | > 100 µM
6) COc1cccc(C=O)c1[O-].COc1cccc(C=O)c1[O-].[Zn+2] | > 100 µM
7) COc1cc(NS(C)(=O)=O)ccc1Cc1c2ccccc2nc2ccccc12 | 1.82 µM
8) OCCN(CCO)c1nc(N2CCCCC2)c2nc(N(CCO)CCO)nc(N3CCCCC3)c2n1 | 40 µM
9) CN1c2c(nc(N)[nH]c2=O)NCC1CCNc1ccc(C(=O)NC(CCC(=O)O)C(=O)O)cc1 (stereo unspecified) | 1310 µM
10) O=S(=O)(O)c1cc(S(=O)(=O)O)c2c(N=Nc3ccc(S(=O)(=O)O)c4ccccc34)c(O)ccc2c1 | > 100 µM
11) CC(C)(C)OC(=O)N1CC(C)(C)N2C(=O)C3(CCCO3)C12 (stereo unspecified) | > 100 µM
12) O=C(O)CN1C(=O)CN=C(c2ccccn2)c2cc(Cl)ccc21 | > 100 µM
13) CSc1nc(NC2OCC(OC(C)=O)C(OC(C)=O)C2OC(C)=O)c2c(n1)OCC2=O (stereo unspecified) | > 100 µM
14) O=C1OC(c2ccc(Cl)cc2)=N/C1=C\c1ccccc1 | > 100 µM
15) CC(ON1[C@](C)(c2ccccc2)CC[C@@]1(C)c1ccccc1)c1ccccc1 (stereo partly specified) | > 100 µM
16) Cc1ccc2[nH]c(O)c(N=Nc3ccccc3[N+](=O)[O-])c2c1 | > 100 µM
17) c1cc(C2=NCCO2)c2ccsc2c1 | > 100 µM
18) O=C(O)CCSC(=O)Nc1cccc2ccccc12 | > 100 µM
19) COc1ccc(CNCCCN2C(=O)c3ccc4c5c(ccc(c35)C2=O)C(=O)N(CCCNCc2ccc(OC)c(OC)c2OC)C4=O)c(OC)c1OC | 0.244 µM
20) Cc1ccc(-c2nc(/C=N/Nc3cc(C)nc4ccc(Br)cc34)c(C)o2)cc1 | 3.82 µM
21) COc1ccc(C[C@]23CCC(=O)N2CCc2cc(OC)c(O)cc23)cc1O | > 100 µM
